- Test target: COX-2 (Mus musculus)
- Construct: endogenous in cells; host or cells: peritoneal macrophages of C57BL/6 mouse, aspirin-pretreated, LPS-induced
- Sequence (Q05769 18-604): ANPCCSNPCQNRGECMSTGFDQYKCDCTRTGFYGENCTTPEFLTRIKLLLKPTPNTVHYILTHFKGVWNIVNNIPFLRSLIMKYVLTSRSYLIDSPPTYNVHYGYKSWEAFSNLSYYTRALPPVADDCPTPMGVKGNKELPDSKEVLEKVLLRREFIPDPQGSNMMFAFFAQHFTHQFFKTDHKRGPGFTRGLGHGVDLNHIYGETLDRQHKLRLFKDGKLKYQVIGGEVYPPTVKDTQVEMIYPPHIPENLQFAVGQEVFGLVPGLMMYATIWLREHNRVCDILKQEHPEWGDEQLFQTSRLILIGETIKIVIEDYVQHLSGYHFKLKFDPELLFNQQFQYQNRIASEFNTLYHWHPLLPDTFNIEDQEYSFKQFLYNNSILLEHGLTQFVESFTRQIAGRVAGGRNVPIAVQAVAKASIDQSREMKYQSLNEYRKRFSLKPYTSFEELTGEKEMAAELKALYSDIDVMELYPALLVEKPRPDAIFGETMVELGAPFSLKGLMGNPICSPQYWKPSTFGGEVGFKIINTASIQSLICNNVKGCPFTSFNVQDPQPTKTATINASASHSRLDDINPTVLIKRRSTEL
- Test summary: Evaluation of COX-2's inhibition efficacy (PGE2 radioimmuno assay, LPS-induced, aspirin-pretreated peritoneal macrophages)
- Type: cell-based, C57BL/6 mouse
- Condition context: 10 μg/ml
Readout label: inhibition at 10 µg/mL (%)
The figure you give is taken to be in %; do not add the unit.

// solved cases for inhibition at 10 µg/mL follow
NS(=O)(=O)c1ccc(-c2oc3ccc(F)cc3c(=O)c2-c2ccc(Cl)cc2)cc1 [Example 50]; 87
Cc1ccccc1-c1c(-c2ccc(S(C)(=O)=O)cc2)oc2ccccc2c1=S [Example 41]; 96

# next compound below
Input: Given the entry CS(=O)(=O)c1ccc(-c2oc3ccccc3c(=S)c2-c2ccccc2)cc1 [Example 37] , report its measured inhibition at 10 µg/mL.
Output: 88

// data source = patent US6340694B1
